Consider the following binders and their measured t½ readings.
studyTarget: T1, monomeric HLA-A2:NY-ESO-1(156-165) (V at position 165) peptide complex, 2906
T1 construct: also called soluble HLA-A2:NY-ESO-1 peptide complex
assayOverview: SPR, 25 C, antibody captured, monomeric complex injected;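 note: antibody held on sensor chip via immobilized anti-human or anti-mouse Fc antibody, rate constants derived by fitting sensorgrams to a 1:1 binding model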
reportedEndpoint: t½ (min)

mAb28105P (antibody, human IgG4 S228P, kappa, V domains shown) VH: EVQLVESGGGVVQPGGSLRLSCEASGFIFDDYAMHWVRQAPGKGLEWVSLISGDGDIIYYADSVKGRFTISRDNSKNSLYLQMNSLIIEDTALYYCAKDWVFGVVMTHYWYFGLDVWGQGTTVTVSS VL: DIQMTQSPSSLSASEGDRVTITCRASQSISTYLNWYQQKPGKAPKLLIYGASSLQSGVPSRFSGSGSGTDFTLTISSLQPEDFATYYCQQSYSTPPITFGQGTKVEIKR    62.8
mAb24959N (antibody, human IgG4 S228P, kappa, V domains shown) VH: QLQLLESGPGLVKPSETLSLICTVSGGSIRGSSYYWGWIRQPPEKGLEWIGSIYSSGSTYYNPSLKSRVTISADTSKNQFSLKLSSVTAADTAVYYCARHGGITAVQLEFDPWGQGTLVTVSS VL: DIQMTQSPSSLSASVGDRVTITCQASQDISNYLKWYQQKPGKAPKILIHDASNLEIGVPSRFSGSGAGTDFIFTISSLQPEDIGTYYCQQYDNLPITFGQGTRLEIKR    22.3
mAb28037P2 (antibody, human IgG4 S228P, kappa, V domains shown) VH: QVQLQESGPGLVKPSETLSLTCTVSGDSISVYYWTWIRQPPGKGLEWIGYVHYTGYTNYNPSLKSRVTMSVDTAKKQISLKVRSVTAADTAVYYCARTIPAAAHYYHGTDVWGPGTTVTVSS VL: DIQMTQSPSSLSASVGDRVTITCQANQDIRKYLNWYQQKSGKAPTLLIYEASNLETGAPSTFSGSGSGTEFTFTISSLRPEDIATYYCQQYESLPLTFGGGTKVEIKR    37.7

Reference source for all entries: patent US20220251215A1
